test system: Bacillus subtilis; assay: Antibacterial activity against Bacillus subtilis grown in sheep blood agar media assessed as concentration required to inhibit bacterial growth due to absence of hemolysis of erythrocytes after 18 hrs by […] broth dilution method; assay type: functional
# MIC annotations

{"columns": ["COMPOUND", "COMPARISON SYMBOL", "MIC / µg/mL"],
 "data": [
  ["CC1=C2[C@@H](O)[C@]3(C)[C@@H](C)CC[C@H]4O[C@]43C[C@@]2(O)OC1=O", "=", 125],
  ["C/C=C(/CO)C(=O)O[C@@H]1C2=C(C)C(=O)O[C@@]2(O)C[C@@]23O[C@@H]2CC[C@H](C)[C@@]13C", "=", 7.25],
  ["C/C=C(/CO)C(=O)O[C@@H]1C2=C(C)C(=O)O[C@]2(OC)C[C@@]23O[C@@H]2CC[C@H](C)[C@@]13C", "=", 125],
  ["C=C(CO)C(=O)O[C@@H]1C2=C(C)C(=O)O[C@@]2(O)C[C@@]23O[C@@H]2CC[C@H](C)[C@@]13C", "=", 15.5],
  ["CC(=O)C1=C[C@@]2(C)C(=CC1=O)[C@H](O)CC[C@@H]2C", ">", 250],
  ["CC(=O)[C@@]12O[C@@H]1[C@@]1(C)C(=CC2=O)[C@H](O)CC[C@@H]1C", ">", 250],
  ["CC1(C)S[C@@H]2[C@H](NC(=O)[C@H](N)c3ccccc3)C(=O)N2[C@H]1C(=O)O [AMPICILLIN]", "=", 12.5]
]}
